tested on: established type II collagen-induced arthritis (CIA) in DBA/1 mice; assay: 14-day mouse established type II collagen-induced arthritis (CIA), PO QD (Example 10); format: in vivo; details: 5 mg/kg PO QD; mean(SE)
Parameter Measured: Change in Body Weight (g)

Reported Change in Body Weight (g) for "CC#CC(=O)N1CCOC[C@H]1c1nc(-c2ccc(C(=O)Nc3ccccn3)cc2)c2c(N)nccn12" was −0.04(0.92) g

----------
test system: established type II collagen-induced arthritis (CIA) in DBA/1 mice; experiment: 14-day mouse established type II collagen-induced arthritis (CIA), PO QD (Example 10); type: in vivo; conditions: 5 mg/kg PO QD
Parameter Measured: six-joint histopathology, reduction of summed scores vs vehicle controls (%)
Please respond with the number in % and leave the unit unwritten.

Here is how some molecules turned out for six-joint histopathology, reduction of summed scores vs vehicle controls.
Form field six-joint histopathology, reduction of summed scores vs vehicle controls for item "CC#CC(=O)N1CCOC[C@H]1c1nc(-c2ccc(C(=O)Nc3ccccn3)cc2)c2c(N)nccn12" on established type II collagen-induced arthritis (CIA) in DBA/1 mice: 75

Form field six-joint histopathology, reduction of summed scores vs vehicle controls for item "CC#CC(=O)N1CC[C@@H](n2c(=O)n(-c3ccc(Oc4ccccc4)cc3)c3c(N)ncnc32)C1" on established type II collagen-induced arthritis (CIA) in DBA/1 mice: 85

Form field six-joint histopathology, reduction of summed scores vs vehicle controls for item "C=CC(=O)N1CCC[C@@H](n2nc(-c3ccc(Oc4ccccc4)cc3)c3c(N)ncnc32)C1" on established type II collagen-induced arthritis (CIA) in DBA/1 mice: 79

Others:
Form field six-joint histopathology, reduction of summed scores vs vehicle controls for item "CC#CC(=O)N1CCC[C@H]1c1nc(-c2ccc(C(=O)Nc3ccccn3)cc2)c2c(N)nccn12" on established type II collagen-induced arthritis (CIA) in DBA/1 mice: 86

----------
system: established type II collagen-induced arthritis (CIA) in DBA/1 mice; experiment: 14-day mouse established type II collagen-induced arthritis (CIA), PO QD (Example 10); assay type: in vivo; conditions: 5 mg/kg PO QD; mean(SE)
Parameter Measured: Histopathology Summed Score Paws

Reported Histopathology Summed Score Paws for "CC#CC(=O)N1CCOC[C@H]1c1nc(-c2ccc(C(=O)Nc3ccccn3)cc2)c2c(N)nccn12" was 4.24(1.07)

----------
assay: Rat pharmacokinetics, oral gavage vs dietary administration in chow; format: in vivo; settings: rat, plasma; oral gavage 30 mg/kg/day, Day 14, male rats; read-out: AUC0-12
Parameter Measured: AUC(0-t) (ng·h/mL)
Please respond with the number in ng·h/mL and leave the unit unwritten.

Reported AUC(0-t) for "CC#CC(=O)N1CCC[C@H]1c1nc(-c2ccc(C(=O)Nc3ccccn3)cc2)c2c(N)nccn12" was 864
